Just for reference, patent US20250109139A1 is where these values come from.

Entries and their AUC(0-t) values follow.
assay: Pharmacokinetics in SD rats, single dose intragastric and intravenous; format: in vivo; conditions: male, rat, plasma, oral administration, 10 mg/kg, read-out: Area under the drug-time curve AUC0-t
Return type: number; implicit unit ng·h/mL.

Entry under review: COc1cccc2c1cc1n2CCN(CC[C@H]2CC[C@H](NC(=O)N(C)C)CC2)C1 . Reported AUC(0-t)?
10400

---

biological target: dopamine D2 receptors (Homo sapiens (Human)); assay: Dopamine D2 receptor β-arrestin2 BRET (recruitment); assay type: cell-based; conditions: relative to endogenous ligand dopamine, read-out: β-arrestin2 BRET Emax % ± SEM
Under this convention, Met denotes Emax strictly below 80% and Not met denotes Emax at or above 80%.

Below are worked cases with known answers.
{"Compound": "CC(C)Oc1cccc2c3c(oc12)CN(CC[C@H]1CC[C@H](NC(=O)N(C)C)CC1)CC3 [I-A19]", "Group Label": "Met"}
{"Compound": "COc1cccc2c1cc1n2CCN(CC2(O)CCCCC2)C1 [I-C12]", "Group Label": "Met"}
{"Compound": "COc1cccc2c3c(oc12)CN(C/C=C/COc1ccc2ccc(=O)[nH]c2c1)CC3 [I-A10]", "Group Label": "Not met"}

Confirm or reject: Emax of COc1cccc2c3c([nH]c12)CN(CCCOc1ccc2c(c1)NC(=O)CC2)CC3 [I-B5] lies strictly below 80%
Met

---

test: Pharmacokinetics in SD rats, single dose intragastric and intravenous; type: in vivo; conditions: male, rat, plasma, intravenous injection, 3 mg/kg, read-out: Elimination half-life t1/2 (converted)
Reported Endpoint: half-life (min)
Return type: number; implicit unit min.

Please review the entries below; each comes with its answer.
{"Query Smiles": "COc1cccc2c3c([nH]c12)CN(CC[C@H]1CC[C@H](NC(=O)N(C)C)CC1)CC3", "half-life / min": 235}
{"Query Smiles": "COc1cccc2c3c(oc12)CN(CC[C@H]1CC[C@H](NC(=O)N(C)C)CC1)CC3", "half-life / min": 248}

Entry under review: COc1cccc2c1cc1n2CCN(CCCCOc2ccc3ccc(=O)[nH]c3c2)C1 . Reported half-life?
218

Entry under review: COc1cccc2c1cc1n2CCN(CCCCOc2ccc3c(c2)NC(=O)CC3)C1 . Reported half-life?
107

---

test: Brain permeability test, single intraperitoneal dose in C57 male mice; assay type: in vivo; conditions: male, C57, mouse, brain/plasma, ip, intraperitoneal 5 mg/kg, 0.5 h, read-out: 0.5 h ratio (brain/plasma)
Entries and their Kp at 0.5 h values follow.
# print the numeric value only

{"Query Smiles": "COc1cccc2c3c([nH]c12)CN(CC[C@H]1CC[C@H](NC(=O)N(C)C)CC1)CC3", "Val": 0.656}
{"Query Smiles": "COc1cccc2c1cc1n2CCN(CC[C@H]2CC[C@H](NC(=O)N(C)C)CC2)C1", "Val": 3.05}
{"Query Smiles": "COc1cccc2c3c(oc12)CN(CC[C@H]1CC[C@H](NC(=O)N(C)C)CC1)CC3", "Val": 1.69}
{"Query Smiles": "COc1cccc2c1cc1n2CCN(CCCCOc2ccc3c(c2)NC(=O)CC3)C1", "Val": 0.855}

Next:
Entry under review: COc1cccc2c1cc1n2CCN(CCCCOc2ccc3ccc(=O)[nH]c3c2)C1 . Reported Kp at 0.5 h?
0.478

---

assay: Brain permeability test, single intraperitoneal dose in C57 male mice; assay type: in vivo; conditions: male, C57, mouse, intraperitoneal 5 mg/kg, 2.0 h, brain, read-out: 2.0 h brain concentration
Under this convention, Satisfied denotes concentration at 2 h strictly below 700 ng/mL and Not satisfied denotes concentration at 2 h at or above 700 ng/mL.

Below are worked cases with known answers.
{"Query Smiles": "COc1cccc2c3c(oc12)CN(CCCCOc1ccc2ccc(=O)[nH]c2c1)CC3", "Group Label": "Satisfied"}
{"Query Smiles": "COc1cccc2c3c([nH]c12)CN(CC[C@H]1CC[C@H](NC(=O)N(C)C)CC1)CC3", "Group Label": "Satisfied"}
{"Query Smiles": "COc1cccc2c1cc1n2CCN(CCCCOc2ccc3ccc(=O)[nH]c3c2)C1", "Group Label": "Not satisfied"}
{"Query Smiles": "COc1cccc2c3c(oc12)CN(CC[C@H]1CC[C@H](NC(=O)N(C)C)CC1)CC3", "Group Label": "Satisfied"}

Confirm or reject: concentration at 2 h of COc1cccc2c1cc1n2CCN(CCCCOc2ccc3c(c2)NC(=O)CC3)C1 lies strictly below 700 ng/mL
Not satisfied

---

Entries and their pEC50 values follow.
target: dopamine D2 receptors (Homo sapiens (Human), UniProt P14416); assay: Dopamine D2 receptor Gαi1 BRET (G protein trimer dissociation); format: cell-based; details: unit printed only in Cariprazine cell, read-out: Gαi1 BRET EC50
Sequence (P14416 whole entry): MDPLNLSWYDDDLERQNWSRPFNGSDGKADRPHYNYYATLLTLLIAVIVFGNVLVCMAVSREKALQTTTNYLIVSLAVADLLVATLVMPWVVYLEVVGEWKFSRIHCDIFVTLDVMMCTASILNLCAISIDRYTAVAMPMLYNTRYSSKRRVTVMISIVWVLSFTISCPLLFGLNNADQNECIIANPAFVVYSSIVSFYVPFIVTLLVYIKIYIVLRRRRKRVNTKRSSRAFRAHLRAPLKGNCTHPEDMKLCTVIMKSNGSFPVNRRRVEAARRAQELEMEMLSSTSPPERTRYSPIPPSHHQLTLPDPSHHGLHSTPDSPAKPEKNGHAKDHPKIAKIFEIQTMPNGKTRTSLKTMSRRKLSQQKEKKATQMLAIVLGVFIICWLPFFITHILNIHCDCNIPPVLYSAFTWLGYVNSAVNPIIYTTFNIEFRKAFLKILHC
Entry type: numeric. Quantity: pEC50, the -log10 of concentration in molar units.

{"Molecule": "COc1cccc2c1nc1n2CCN(CCCCOc2ccc3c(c2)NC(=O)CC3)C1 [I-D2]", "Test Target": "dopamine D2 receptors (Homo sapiens (Human), UniProt P14416)", "Val": 6.45}
{"Molecule": "CCOc1cccc2c3c(oc12)CN(CCc1ccc2ccc(=O)[nH]c2c1)CC3", "Test Target": "dopamine D2 receptors (Homo sapiens (Human), UniProt P14416)", "Val": 7.34}
{"Molecule": "CCOc1cccc2c3c(oc12)CN(CCCCOc1ccc2ccc(=O)[nH]c2n1)CC3", "Test Target": "dopamine D2 receptors (Homo sapiens (Human), UniProt P14416)", "Val": 7.48}

Entry under review: COc1cccc2c3c([nH]c12)CN(CC1(O)CCCCC1)CC3 . Reported pEC50?
7.36

Entry under review: COc1cccc2c3c(oc12)CN(CC[C@H]1CC[C@H](NC(=O)N(C)C)CC1)CC3 . Reported pEC50?
8.86

---

Target: dopamine D2 receptors (Homo sapiens (Human))
Experiment: Dopamine D2 receptor radioligand competition binding assay ([3H]-Methylspiperone)
Settings: [3H]-Methylspiperone 0.3 to 0.5 nM, 293T membranes; read-out: Affinity Ki
Experimental: The affinity of the compounds of the present disclosure for dopamine D2 receptors was determined by a radioligand competition binding assay. In the first step, a cell membrane component containing specific dopamine D2 receptors was prepared. A 10 cm culture dish was used for transfection with […] of dopamine D2 receptors and 40 μL of polyethylenimine (PEI hereafter). […]
Reported Endpoint: Ki (nM)
Return type: number; implicit unit nM.

{"Query Smiles": "COc1cccc2c3c(oc12)CN(CCCOc1ccc2ccc(=O)[nH]c2c1)CC3", "Ki [nM]": 149}

Entry under review: COc1cccc2c3c(oc12)CN(C/C=C/COc1ccc2ccc(=O)[nH]c2c1)CC3 . Reported Ki?
139

Entry under review: COc1cccc2c3c(oc12)CN(CCCCOc1ccc2ccc(=O)[nH]c2c1)CC3 . Reported Ki?
84.4

---

target: dopamine D2 receptors (Homo sapiens (Human), UniProt P14416); test: Dopamine D2 receptor Gαi1 BRET (G protein trimer dissociation); type: cell-based; settings: relative to endogenous ligand dopamine, read-out: Gαi1 BRET Emax % ± SEM
Reported Endpoint: Emax (%)
Return type: number; implicit unit %.

Please review the entries below; each comes with its answer.
{"Compound": "CC(C)Oc1cccc2c3c(oc12)CN(CC[C@H]1CC[C@H](NC(=O)N(C)C)CC1)CC3 [I-A19]", "Emax, %": 40}
{"Compound": "CCOc1cccc2c3c(oc12)CN(CCCCc1ccc2ccc(=O)[nH]c2c1)CC3 [I-A25]", "Emax, %": 40}

Notebook entry, dopamine D2 receptors (Homo sapiens (Human), UniProt P14416) assay: Emax of COc1cccc2c3c([nH]c12)CN(CCCOc1ccc2ccc(=O)[nH]c2c1)CC3 [I-B3] = ?
41

---

assay: Pharmacokinetics in SD rats, single dose intragastric and intravenous; assay type: in vivo; settings: male, rat, plasma, oral administration, 10 mg/kg, read-out: Area under the drug-time curve AUC0-t
Reported Endpoint: AUC(0-t) (ng·h/mL)
Return type: number; implicit unit ng·h/mL.

Please review the entries below; each comes with its answer.
{"Query Smiles": "COc1cccc2c3c([nH]c12)CN(CC[C@H]1CC[C@H](NC(=O)N(C)C)CC1)CC3", "Units Of Measure": "ng·h/mL", "Val": 10200}
{"Query Smiles": "COc1cccc2c1cc1n2CCN(CCCCOc2ccc3c(c2)NC(=O)CC3)C1", "Units Of Measure": "ng·h/mL", "Val": 7730}
{"Query Smiles": "COc1cccc2c1cc1n2CCN(CCCCOc2ccc3ccc(=O)[nH]c3c2)C1", "Units Of Measure": "ng·h/mL", "Val": 8140}

Next:
Entry under review: COc1cccc2c3c(oc12)CN(CC[C@H]1CC[C@H](NC(=O)N(C)C)CC1)CC3 . Reported AUC(0-t)?
5660
